Cited source for all entries: ChEMBL document CHEMBL3046778

Test system: Rattus norvegicus
method-summary: Toxicity in Rattus norvegicus Wistar (rat) assessed as heart rate at 40 mg/kg, ip measured after 60 min by ECG analysis (reference value: 307.62 +/- 0.053 bpm)
Format: organism-based
Set-up: dose 40 mg/kg, route intraperitoneal
condition-set: in vivo, 1 h
recorded-metric: Activity (bpm)

1) CCOC(=O)C1=C(C)N(CC(O)COc2ccc(/C=N/C(=S)Nc3ccc(Cl)cc3)cc2)C(=S)NC1c1cccc([N+](=O)[O-])c1 (centres undefined)	260.42
2) CCOC(=O)C1=C(C)N(CC(O)COc2ccc(/C=N/C(=S)Nc3ccc(OC)cc3)cc2)C(=S)NC1c1cccc([N+](=O)[O-])c1 (centres undefined)	300.22
3) CCOC(=O)C1=C(C)N(CC(O)COc2ccc(/C=N/C(=S)Nc3ccccc3OC)cc2)C(=S)NC1c1cccc([N+](=O)[O-])c1 (centres undefined)	215.7
4) CCOC(=O)C1=C(C)N(CC(O)COc2ccc(/C=N/C(=S)Nc3ccc(Cl)cc3)cc2)C(=S)NC1c1ccccc1[N+](=O)[O-] (centres undefined)	315.25
